I'd appreciate it if you could supply folding stability dG unfold values for the items below.
- METHOD_SUMMARY: folding stability dG unfold from trypsin proteolysis; higher = more stable
The reply should consist of the numeric value with the unit placed after it.

Item: SAGMIATITITRPGTGSITLTVPVPVPSEEEARAYAEAVREALRAADPGPLEVSVEFERVPPVPPERLGSAG [r5_87_JUSTAS] | folding stability dG unfold: 1.6 kcal/mol

Entry under test: SAGGSAAIPLEFELPNGERVTVYYDPETGLFTVEVEVRFGNEKGEPPEVRFRFEVDSLVDLLDFLASAGGSA [r15_31_TrMRF] . Its folding stability dG unfold was 2.51 kcal/mol

Summary for this sequence, PPTSPEFRKALENIKKVDIEIEPYPNDGMVRMSIELKFPDKPVEIDIHYQYDPDGKINGMWARLDGKWIPIS [r1_274_TrROS] : folding stability dG unfold is 1.1 kcal/mol

// folding stability dG unfold lookup, sequence = SAGGKPLEPKIEVEVIPLPSGERVITLRVEVPPNDPLKIKFPGLKKEVEFPGDDEVEFRVVVPPDSFSAGGS [r16_56_TrMRF] , result: 0.662 kcal/mol

Lab book: folding stability dG unfold of SAGGSAGGSAMKILSVTEEVLPNGTRVVRVTVKLPTPKTREIVVSPEVVEAGRLDEVVEELLSAGGSAGGSA [r18_129_JUSTAS] noted as 1.38 kcal/mol

Lookup result for SAGGSAGGSAGPVKTVEVEIPGMSEEELLALLPPGVKRVEIEREEVEPGRVRLRIKVYEESAGGSAGGSAGG [r11_1002_TrROS_Hall] ; measured folding stability dG unfold: 0.307 kcal/mol

Form field folding stability dG unfold, entry SAGGSAGGSAGGSKKYFFKIKKIKVETKLEVNEDGSLTEEKKIEIEIELRELPSLEDLLSAGGSAGGSAGGS [r4_450_TrROS_Hall] : 3.56 kcal/mol

The sequence SAGGSAEIEIVIVVPEGASEEQVKALAKELKEELEKLLKVKDKDGKEKEVKIKKIKITVIVLPKEESAGGSA [r15_717_TrROS_Hall] showed folding stability dG unfold equal to 2.37 kcal/mol

folding stability dG unfold reading for SAGGSAGGSAGEEIIRAAKEAAKAGKKVRIVVPKGMSAEEIAKKLAEELNIEKVEVYELPSAGGSAGGSAGG [r11_524_TrROS_Hall] : 0.332 kcal/mol

folding stability dG unfold measured on SAGGSAGGSIRIIFPVDNPEQAENIAEEIAERFGIQIEDIEVEQVPNGMYIVTFEVKIPPEMISAGGSAGGS [r12_577_TrROS] = 2.41 kcal/mol

The sequence identified as SAGGEWHEISIKFPNPEEIEEALREAFPPGMDVDPDVEPNPNGWEVEIEVPRNNPDRVQNAIKEALDSAGGS [r16_43_TrROS] registered its folding stability dG unfold at 0.452 kcal/mol

Short answer for SAGGSAGGSAGHRSVMVTVDDIAKENGIKIPPGSYLMVTVEGNKVKDIMIQPMKPKPEDPSAGGSAGGSAGG [r11_616_TrROS] : folding stability dG unfold was -0.499 kcal/mol

Form field folding stability dG unfold, entry SAGGSGPLLERALEEIREALAKAKEGEEVEIEVKVTVTGPDGRTREFTFRIRFVVKDGKIVKVEIESAGGSA [r2_173_TrROS_Hall] : 3.74 kcal/mol

Reported folding stability dG unfold for SAGGSAGGSAGPMEVERETIMIPIDPDKGYYIMIDVWRYKNPGGPPFPAPSISIMDLDDLSAGGSAGGSAGG [r11_51_TrROS] was 1.78 kcal/mol

Memo: SAGGSAGGSAGGSYEVKEETEPKTGLKITTTTLPDGTIETTTINPATGEVTTTTSSPLESAGGSAGGSAGGS [r10_127_JUSTAS] , reported folding stability dG unfold: 1.34 kcal/mol

Recorded result, SAAPGAEVIEEKEIEVGGYTVTIVYNKDTDTVTIFVRNPDGTITEFTIDADTLEITEVREIKLPPGVELSAG [r14_676_TrROS_Hall] , folding stability dG unfold: 2.24 kcal/mol

For this sequence ( SAGGSAGGSAGGLVLRGPNDSLLFVLYNPDTGLAVFYNPATNQLLVVNLPLPKPKPSELLSAGGSAGGSAGG [r7_383_TrMRF] ), measured folding stability dG unfold is 2.38 kcal/mol

Reported folding stability dG unfold for SAGGSAGGSMKIKVEVEMEKVKDPKKKGEYIYKMKIKKVEIELSEEEKEKLKELAEKLGIEVESAGGSAGGS [r12_249_TrROS_Hall] was 1.42 kcal/mol

Query SAGGSAGGSAGGGMPSYVTKTTTTTVKITNTTTGGNSTTTTTSTVTVTTTTLLPPGLLASAGGSAGGSAGGS [r10_300_JUSTAS] yields folding stability dG unfold of -0.147 kcal/mol

So for SAGMETIEVPLPVEEIKEALDAGLSPEEIARLLAEETGEEVEIEVGGRKITITRNEDGELIVRIEVKPDSAG [r5_343_TrROS_Hall] , the logged folding stability dG unfold turned out to be 2.51 kcal/mol

The sequence identified as SAGPTIMIPMPPKESLEEAVEKAIEWIREFFPDNLKPGKKIKIFVHVWDPDNGKQYWVTIEIPIPKGELSAG [r5_916_TrROS] registered its folding stability dG unfold at 2.48 kcal/mol

Reported folding stability dG unfold for SAGGSAGGSWFIRVEYKRPNGQPKTLQIPVPRDQLKKMSIDEIKDRAENLGLPPNVKIEWYPFSAGGSAGGS [r12_742_TrROS] was 1.04 kcal/mol

The sequence identified as SAGGSAGGSAKKIVIKVKPGMTEEEILEEIAKKLGLKPEKIKKIEIERNKDGYLYVTIEIESAGGSAGGSAG [r3_26_TrROS_Hall] registered its folding stability dG unfold at 3.66 kcal/mol

Query SAGGSAGGSAGGPKVEVLEVFEFGDLRFVKVYDPETGKVTLLAVTRSDGSKVTFFNPEESAGGSAGGSAGGS [r10_655_TrMRF] yields folding stability dG unfold of 1.42 kcal/mol

So, SAGGSAGGSAGMIVAKVVEYDPETGEITIEVDGKKITLPLKNMKIKEVNGYLVIEFKEDDSAGGSAGGSAGG [r17_403_TrROS_Hall] ? Its folding stability dG unfold was 2.89 kcal/mol

Item: SAGGSAGGSAGKYEVTKIEVVKNEDGSEYLRVTIKVDGKEITITIPLEDAENIKIEIKPPSAGGSAGGSAGG [r17_64_TrROS_Hall] | folding stability dG unfold: 2.69 kcal/mol

Form field folding stability dG unfold, entry SAGGSAGGMELLPDGTLVLTLKAPSLEEALKAAEALAPPGAEVEIRFDEETKEVVIVIKLPPPESAGGSAGG [r6_859_TrROS_Hall] : 2.46 kcal/mol
